target: nADSL (Neanderthal adenylosuccinate lyase); construct: Neanderthal (ancestral Ala429) variant, equals human ADSL with V429A; N-terminal thrombin-cleavable His tag (pET-14b), cut; E. coli Rosetta2 (DE3); homotetramer; assay: isothermal titration calorimetry; conditions: 10 mM HEPES pH 7.5, 100 mM NaCl, 1 mM DTT, 20 °C; 90 µM protein in cell
pKd: −log10 of the molar value.

>  <Compound>
Nc1ncnc2c1ncn2[C@@H]1O[C@H](COP(=O)(O)O)[C@@H](O)[C@H]1O [AMP]

>  <pKd>
~4.60

$$$$

###

Molecular target: hADSL (modern human adenylosuccinate lyase) (Homo sapiens)
Construct: N-terminal thrombin-cleavable His tag (pET-14b), E. coli Rosetta2 (DE3); tag cut, but kept for the domain 3 mutants; homotetramer; Val429
Sequence (P30566 1-484): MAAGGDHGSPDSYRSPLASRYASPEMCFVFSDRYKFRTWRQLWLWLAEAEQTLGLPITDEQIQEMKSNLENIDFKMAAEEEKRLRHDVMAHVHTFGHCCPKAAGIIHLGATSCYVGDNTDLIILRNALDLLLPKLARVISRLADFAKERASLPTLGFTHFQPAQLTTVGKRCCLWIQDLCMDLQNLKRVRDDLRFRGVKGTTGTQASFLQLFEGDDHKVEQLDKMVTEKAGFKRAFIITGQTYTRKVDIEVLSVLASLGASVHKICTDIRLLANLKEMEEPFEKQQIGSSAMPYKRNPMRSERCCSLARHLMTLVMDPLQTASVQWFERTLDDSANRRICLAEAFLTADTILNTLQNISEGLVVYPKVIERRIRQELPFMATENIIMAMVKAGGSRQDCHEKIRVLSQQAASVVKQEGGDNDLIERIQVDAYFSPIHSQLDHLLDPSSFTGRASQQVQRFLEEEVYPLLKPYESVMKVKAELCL
Experiment: isothermal titration calorimetry
Result Type: Kd

>  <Structure String>
Nc1ncnc2c1ncn2[C@@H]1O[C@H](COP(=O)(O)O)[C@@H](O)[C@H]1O

>  <Endpoint Result>
~25 µM

$$$$
